assay: soluble on expression in E. coli; label from the status in PepcDB or PDB records
experimental readout: soluble on expression in E. coli

- SKNGLKKRKLTNPVQLDDFDGYIKDMAKDSDYKFSLQFEELKLIGLDIPHFAADLPMNRCKNRYTNILPYDFSRVRLVSMNEEEGSDYINANYIPGYNSPQEYIATQGPLPETRNDFWKMVLQQKSQIIVMLTQCNEKRRVKCDHYWPFTEDPIAYGDITVEMLSEEEHTDWVYRNFRISYADEVQDVMHFNYTAWPDHGVPTANAAESILQFVQMVRQKSVKSKGPMIIHCSAGVGRTGTFIALDWLLQHIRDHEFVDILGLVSDMRSYRMSMVQTEEQYIFIHQCVQLMWQKKKQQFCISDVIYENVSKS: soluble
- MRFKVVGKNIVVTEALKEAAVKKVGKLDKYFRRDAEATITMSVQKNRHIVEVTIPFEGGLLRAEEDSPDMYASIDKVIDSLERQIRRNKTKLEKKVHDGSLRFENIKFDDDEVEEEPKFEVVRTKKFAIKPMTVEEAILQMNLLGHQFFMFSNAETNEANVVYRRKDGNYGLIEPEF: not soluble
- MNDTLPGRISRERRGHLLLLGLDRVAKRNAFDLPMLDDLVAALGEYEADDQLRCALLFAHGEHFTAGLDLANVGETFRQGWKLPEGAVDPWGTFGGRRPSKPLVVAVQGYCYTIGIELMLAADINLCASNARFAQLEVQRGILPFGGATLRMHQVAGWGNAMRWLLTGDEFDAHEAYRLGLVQEVTAPEDLLDHAIALAERVAAQAPLGVRATLGSARQALLEGEAVAAAALPEAARRLLDSEDAKEG: not soluble
- MRWAIVRFPGANCDEDARFALEKAGIRAEFVWHTERDLRGFDGVFLPGGFSYGDYLRAGALAAKSPVMEAVRRFAEEGRYVVGVCNGFQILTEAGLLPGALLANLNLHFTCKEVGVRVERNDLPFTRLYPRGQVLRLPIAHGEGRYYADPETLARLEGEGLVVFRYAPLKDEADYNPNGSLHDIAGIVSEKGNVLGMMPHPERAVDEVLGNTDGLPFFLGLVKEVAR: soluble
- MTKTEPNNAQLDWLESESIHIIREVAAECENPALLFSGGKDSVVLLALACKAFRLGSRPVKLPFPLVHIDTGHNYPEVIAFRDAQAAKLNARLIVGRVEDSIAKGTVVLRKETDSRNAAQAVTLLETIEANGFDALMGGARRDEEKARAKERIFSFRDEFGQWDPKAQRPELWSLYNTRLHKGENMRVFPISNWTELDIWQYIARENLELPPIYYSHRREVVRRRGLLVPVTPLTPKMPSETSEILDVRFRTVGDISCTCPVESTASTPTEIIRETAVADISERSATRLDDQASEAAMEKRKKEGYF: not soluble

Field: next sequence
Record request: soluble on expression in E. coli value, item MISKYLVRDVMKKGVVEVTLDTKLSDVIKTMAKYDISSVVVSDGETFWGIITDTDVLKHYNDLDKTAEEIMTTNPITVSPEAPLEKAVEIMAEKGIHHLYVKSPCEDKIVGVLSSKDIIKLFSDLIE
soluble

* * *

experiment: soluble on expression in E. coli; label from the status in PepcDB or PDB records
experimental readout: soluble on expression in E. coli

# example entries with known answers
* MLYLTQRLEIPAAATASVTLPIDVRVKSRVKVTLNDGRDAGLLLPRGLLLRGGDVLSNEEGTDFVQVIAADEEVSVVRCDDPFMLAKACYALGNRHVPLQIMPGELRYHHDHVLDDMLRQFGLTVTFGQLPFEPEAGAYASES | soluble
* MGSDKIHHHHHHMLQGKVSVIVPAYNAARLLERCVRSITGQTYPALEVIVVDDGSKDDTGKIADQLAAEDSRIRVVHKTNGGVSAARNDALKLVEGEWITFVDSDDYLEPDFLRSLLDGEVADLVIGGYHTVGANEIPSANYPTDTAHSPEAIKRALEARLTDMTFLCPWGKLFRTSLVRSLRLIFNTEMKVGEDVVFVWSYLAHCSSLAFKQGQGYDYYTEPGADFKYALDETVSLQTIERILGVLDGLKRNFGMDTEHARCHVLNYYIWLFKLYVNRNYLLRDLARMKNFFYYPLILDYYKTYRRTSKDKLLVYLLLKLRLSGVLYLMIKLYY | not soluble
* MEILSDMWKEKITFIGINIDDEKSWKKFSQKNIKWITLNDPKEAFGLYIRYKANGIPFYVLVTPDGRISDIWYGYNKDSLSERLKQGVK | not soluble
* GHMSTPLTLIATITAAPGHAEALERELRALVAPSRAEAGCLQYDLHQDRHDSHLFYMIEQWRDDAALERHQNTEHFLRFSRGNEALLQNVKIDQLYRLA | soluble
* MAFYLPDWSCCGLWLFGRPRNRYSQLPEEPETFECPDRWRAEIDLGLPPGVQVGDLLRNEQTMGSLRQVYLLAVQANSITDHLKRFDAVRVPESCRGVVEAQVAKLEAVRSVIWNTMISLAVSGIEMDENGLKALLDKQAGDSLALMEMEKVATALKMDETGAWAQEISAVVSSVTAPSASAPFINSAFEPEVPTPVLAPPPVVRQPEHSGPTELALT | not soluble
* MSEFEGWIKWLEPVFLLWKPEDPGYERPAYRDWTKEEDEPKYSPEKELALLDKQILASDGFDIDFTHFRCVFNYHLAYLDSHEFVDEPETTRDLLERLSRKALDDYNQESVVKANFHFCCAIMFLITFEVVDPYDNLIKLFQTRVRHAEDIVTEYVFCRPKPNQGVECIGVKNNDGKDVQTNVKEQEIPCMYGWFLRVITITFTLQIGVGASICHKE | soluble

Next up:
I would be grateful if you could share the reported soluble on expression in E. coli for GPGSMPAIVKQLPSSDDDNDQASLSPAKQYAQLGEESSPAGASRAELSNAEAGAEAEGLAQPQKTDASGAERVVDVEECSRLKAAGNELFKDGNISEALTLYRKALWCAPLKPVRPHHPATGESSGLPTPPNGSAPAASSHTATQRDETEVEQQPEDKTDYTLTAQVYCNAGFCLMKLDVKEEAAHMLSEAIRHDDSYLKAYIRRADCYYMMQKWSSAYGDYESYEKLGGVLDAQGCTRKAASKAKVDEEMQKMLGELKSLGNKILGNFGLSTDNFKFDKDPNTGGYSMRFER .
soluble
